- method-summary: chemical genetic growth profiling, strain panel (AID 1159580);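 further: tested at 20 µM; growth read once vehicle control cultures reached saturation at 30 °C; 1 = growth at the plate median or of vehicle wells; lower values mean less growth of the strain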
- reported-conditions: S. cerevisiae deletion strains, growth OD, locus YNL006W, strain LST8, active compounds read low
The whole screen tested about 5,500 compounds, of which about 2,000 (36%) were called active. Not shown: some 18% with an inconclusive outcome. The list shows a part of the results.
Entries and their normalized growth
Answer as a number with no unit attached.

compound: Cc1ccc(C(=O)Nc2ccc3ccccc3n2)cc1
normalized growth: 0.966
//
compound: FC(F)(F)c1ccc(NC(=S)Nc2ccc(C(F)(F)F)cc2Cl)c(Cl)c1
normalized growth: 0.961
//
compound: O=C(O)c1cccc2cccc(C(=O)O)c12
normalized growth: 0.077
//
compound: CCOC(=O)C(O)(c1ccc(NC(=O)Nc2ccc(Cl)cc2)cc1)C(F)(F)F (stereo unspecified)
normalized growth: 1.01
//
compound: Cc1c(C(=O)NCCNc2ccc(C(F)(F)F)cc2[N+](=O)[O-])cnn1-c1ccc(F)cc1
normalized growth: 1

Turning to the following compound.
Inquiry: // normalized growth lookup, key: CCC1(c2ccccc2)OC(c2cc(Cl)cc(Cl)c2O)Nc2ccccc21 (stereo unspecified)
Reply text: 0.969

----------
- method-summary: chemical genetic growth profiling, strain panel (AID 1159580)
- reported-conditions: S. cerevisiae deletion strains, growth OD, locus YMR231W, strain pep5, active compounds read low
Screen size: about 5,500 compounds; about 2,000 (36%) were called active. Not shown: some 18% with an inconclusive outcome. The list shows a part of the results.
recorded-endpoint: normalized growth
Answer as a number with no unit attached.

compound: COc1ccc2c(c1)[nH]c1c(C)nccc12
normalized growth: 1.01

compound: C[C@H]1C(=O)O[C@@H]2CCN3CC=C(COC(=O)[C@](C)(O)[C@]1(C)O)[C@H]23
normalized growth: 0.998

compound: CC(C)(O)CC[C@@H](O)[C@](C)(O)C1CC[C@@]2(O)C3=CC(=O)C4C[C@@H](O)[C@@H](O)C[C@]4(C)C3CC[C@]12C (some centres not stated)
normalized growth: 0.969

Inquiry: // normalized growth lookup, key: CCCCC/C=C\C/C=C\C/C=C\C/C=C\CCCC(=O)O
Reply text: 0.974

----------
- method-summary: chemical genetic growth profiling, strain panel (AID 1159580)
- reported-conditions: S. cerevisiae deletion strains, growth OD, locus YGR040W, strain KSS1, active compounds read low
Out of some 5,500 compounds screened, about 2,000 (36%) were called active. Not shown: some 18% with an inconclusive outcome. The list shows a part of the results.
recorded-endpoint: normalized growth
Answer as a number with no unit attached.

molecule: CCC1(c2ccccc2)OC(c2cc(Cl)cc(Cl)c2O)Nc2ccccc21 (stereo unspecified)
assay-result: 0.689
--
molecule: N#C/C(=C\c1ccc(C(F)(F)F)cc1)c1ccc(O)cc1
assay-result: 0.53
--
molecule: CC(Oc1ccc(Cl)cc1Cl)C(=O)NNC(=S)Nc1ccccc1 (stereo unspecified)
assay-result: 0.965
--
molecule: FC(F)(F)c1ccc(NC(=S)Nc2ccc(C(F)(F)F)cc2Cl)c(Cl)c1
assay-result: 0.929
--
molecule: O=S(=O)(Nc1ccc(-n2nc(C(F)(F)F)cc2-c2cccs2)cc1)c1ccc(F)cc1
assay-result: 0.987

Inquiry: // normalized growth lookup, key: O=C1OC(Nc2ccccc2SCc2ccccc2Cl)c2ccccc21 (stereo unspecified)
Reply text: 0.899

----------
- method-summary: chemical genetic growth profiling, strain panel (AID 1159580)
- reported-conditions: S. cerevisiae deletion strains, growth OD, locus YNR030W, strain Alg12, active compounds read low
Hit rate of the full screen: of about 5,500 compounds, about 2,000 (36%) were called active. Another 18% or so got no clear call; they are omitted. The list shows a part of the results.
Entries and their normalized growth
Answer as a number with no unit attached.

Example entries and their recorded answers appear below.
compound: CC(=O)/C(=C\N(C)C)Sc1nnc(C(F)(F)F)n1C
normalized growth: 1.02

compound: N#C/C(=N/Nc1ccc(C(F)(F)F)cc1)C(=O)C1CC1
normalized growth: 0.773

compound: CC1=CC(C)(C)NC(=S)N1
normalized growth: 1.01

Inquiry: // normalized growth lookup, key: COc1ccc(/C(C#N)=C/c2ccc(OC)c(OC)c2)cc1
Reply text: 0.925

Inquiry: // normalized growth lookup, key: COc1ccc(-n2c(SCc3ccc(Br)cc3)nnc2-c2ccco2)cc1
Reply text: 0.966

Inquiry: // normalized growth lookup, key: CC(=O)/C(=C\N(C)C)Sc1ccc(Cl)cc1
Reply text: 1.03

----------
- method-summary: chemical genetic growth profiling, strain panel (AID 1159580)
- reported-conditions: S. cerevisiae deletion strains, growth OD, locus YLR342W, strain FKS1
The whole screen tested about 5,500 compounds, of which about 2,000 (36%) were called active. Another 18% or so got no clear call; they are omitted. Rule as the data show it: active = normalized growth mostly below about 0.91 (no sharp cut-off); inconclusive = no clear call, values can overlap the other calls; inactive = mostly above about 0.92. This is one part of the list.
Bench note: report the call from active, inactive

Use the examples below as a reference point.
smi: COc1ccc2c(=O)c(-c3cc4c(cc3OC)OCO4)coc2c1
category-label: inactive
--
smi: COc1cc2c(cc1-c1coc3c4c(c(OC)cc3c1=O)OC(C)(C)C=C4)OCO2
category-label: inactive
--
smi: COc1cc(OC)c2c(=O)c(-c3ccc4c(c3)OCO4)coc2c1
category-label: inactive

Inquiry: Could you please tell me the result logged for CC1(C)C=Cc2c(cc3occ(-c4ccc5c(c4)OCO5)c(=O)c3c2O)O1 in this assay?
Reply text: active

Inquiry: Could you please tell me the result logged for O=c1c(-c2ccc3c(c2)OCO3)coc2cc(O)ccc12 in this assay?
Reply text: inactive

Inquiry: Could you please tell me the result logged for CC(C)=CCc1c(O)cc2occ(-c3ccc4c(c3)OCO4)c(=O)c2c1O in this assay?
Reply text: inactive

Inquiry: Could you please tell me the result logged for COc1c2c(cc3occ(-c4ccc5c(c4)OCO5)c(=O)c13)OC(C)(C)C=C2 in this assay?
Reply text: inactive

Inquiry: Could you please tell me the result logged for O=C1c2ccccc2C(=O)c2c1ccc(O)c2O in this assay?
Reply text: active

----------
- method-summary: chemical genetic growth profiling, strain panel (AID 1159580);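 further: tested at 20 µM; growth read once vehicle control cultures reached saturation at 30 °C; 1 = growth at the plate median or of vehicle wells; lower values mean less growth of the strain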
- reported-conditions: S. cerevisiae deletion strains, growth OD, locus YPL078C, strain atp4, active compounds read low
Screen size: about 5,500 compounds; about 2,000 (36%) were called active. Another 18% or so got no clear call; they are omitted. Some of the results follow.
recorded-endpoint: normalized growth
Answer as a number with no unit attached.

Example entries and their recorded answers appear below.
compound: COc1cc(OC)c2c(c1Cl)OC1(C2=O)C(O)=CC(=O)CC1C (configuration not stated)
normalized growth: 1.01
--
compound: COc1cc(O)c(C(C)=O)c(OC)c1
normalized growth: 0.954
--
compound: CC1=C(C(=O)O)N2C(=O)[C@@H](NC(=O)[C@H](N)C3=CCC=CC3)C2SC1 (some centres not stated)
normalized growth: 1.02
--
compound: COc1ccc(Cc2nccc3cc(OC)c(OC)cc23)cc1OC
normalized growth: 0.998
--
compound: CC1(C)C[C@@H]2C(=O)CC[C@H]3O[C@]3(C)CC[C@H]21
normalized growth: 0.992

Inquiry: // normalized growth lookup, key: COc1ccc2c(=O)c(CC(=O)O)coc2c1
Reply text: 1.03

Inquiry: // normalized growth lookup, key: O=c1c(-c2ccc3c(c2)OCO3)coc2cc(O)ccc12
Reply text: 0.995

----------
- method-summary: chemical genetic growth profiling, strain panel (AID 1159580);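 further: tested at 20 µM; growth read once vehicle control cultures reached saturation at 30 °C; 1 = growth at the plate median or of vehicle wells; lower values mean less growth of the strain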
- reported-conditions: S. cerevisiae deletion strains, growth OD, locus YOR080W, strain dia2, active compounds read low
The whole screen tested about 5,500 compounds, of which about 2,000 (36%) were called active. Not shown: some 18% with an inconclusive outcome. Some of the results follow.
Entries and their normalized growth
Answer as a number with no unit attached.

compound: O=C1c2ccc(O)c(O)c2C(=O)c2c(O)ccc(O)c21
assay-result: 0.759
--
compound: C=C1CC2C(CCC3(C)C(=O)CCC23)C2(C)C=CC(=O)C=C12 (stereo not given)
assay-result: 0.934

Inquiry: // normalized growth lookup, key: C[C@H]1C(=O)O[C@@H]2CCN3CC=C(COC(=O)[C@](C)(O)[C@]1(C)O)[C@H]23
Reply text: 0.994

Inquiry: // normalized growth lookup, key: COc1cc(OC)c2c(c1Cl)OC1(C2=O)C(O)=CC(=O)CC1C (stereo not given)
Reply text: 1.01

----------
- method-summary: chemical genetic growth profiling, strain panel (AID 1159580);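 further: tested at 20 µM; growth read once vehicle control cultures reached saturation at 30 °C; 1 = growth at the plate median or of vehicle wells; lower values mean less growth of the strain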
- reported-conditions: S. cerevisiae deletion strains, growth OD, locus YOR144C, strain elg1, active compounds read low
Hit rate of the full screen: of about 5,500 compounds, about 2,000 (36%) were called active. About 18% were inconclusive and are not listed. The list shows a part of the results.
recorded-endpoint: normalized growth
Answer as a number with no unit attached.

Example entries and their recorded answers appear below.
molecule: COc1cc(O)c(C(=O)O)c(O)c1
normalized growth: 1
//
molecule: COc1ccc(Cc2nccc3cc(OC)c(OC)cc23)cc1OC
normalized growth: 1
//
molecule: CC(C)CCCC(C)C1CCC2C3CCC4CC(=O)CCC4(C)C3CCC12C (stereo not given)
normalized growth: 1.01

Inquiry: // normalized growth lookup, key: C[C@]12CCC3C(CC[C@H]4C[C@@H](Cl)CC[C@]34C)C1CCC2=O (stereo not given in full)
Reply text: 1.01

Inquiry: // normalized growth lookup, key: CC1=C2CCC3C(CC[C@]4(C)C(=O)CCC34)[C@@]2(C)CCC1=O (stereo not given in full)
Reply text: 0.958

Inquiry: // normalized growth lookup, key: Fc1ccc(C(c2ccc(F)cc2)N2CCN(C/C=C/c3ccccc3)CC2)cc1
Reply text: 0.982

Inquiry: // normalized growth lookup, key: CC(=O)OCC(=O)[C@@]1(O)CCC2C3CCC4=CC(=O)CC[C@]4(C)[C@@]3(F)[C@@H](O)C[C@@]21C (stereo not given in full)
Reply text: 1

Inquiry: // normalized growth lookup, key: C/C=C(\C)C(=O)OC1[C@@H]2C=C3C4CC(=O)O[C@@H](c5ccoc5)[C@]4(C)CCC3[C@@](C)(C2=O)[C@@H](C(O)C(=O)OC)C1(C)C (stereo not given in full)
Reply text: 1.01

Inquiry: // normalized growth lookup, key: CCOc1ccc(Cc2nccc3cc(OCC)c(OCC)cc23)cc1OCC
Reply text: 0.974

Inquiry: // normalized growth lookup, key: COc1cc(OC)c(-c2c(OC)cc(OC)cc2OC)c(OC)c1
Reply text: 1.02
